The reported numbers originate from ChEMBL document CHEMBL1201862.

- Tested on: HCT-116
- assayMethodText: NCI tumour cell line growth inhibition, 48 h
Calls of active or inactive are those of the source. Rule as the data show it: active = GI50 up to about 1.1 µM and inactive = higher.
measurementKind: GI50

CC1CC(C)C(=O)C(C(=O)CC2CC(=O)NC2=O)C1 (centres undefined); > 100 µM (inactive)
COc1ccc(NC(=S)NC(=O)c2ccc3c(c2)Sc2ccccc2O3)c([N+](=O)[O-])c1; 28.9 µM (inactive)
CC#CS(=O)(=O)c1ccccc1; 4.36 µM (inactive)
CC(C)N1CC2CN(Cc3ccccc3)CC(C1)C2=O; > 100 µM (inactive)
COc1ccc(-c2nnc(CCCCCCCCc3nnc(-c4ccc(OC)cc4)n3N)n2N)cc1; > 66.1 µM (inactive)
COc1cccc(/C=C2\N=C(Cl)OC2=O)c1O; > 100 µM (inactive)
Cc1cc(O)c(C=O)c2c1C(=O)Oc1c(CO)c(O)c3c(c1O2)C(O)OC3=O (centres undefined) [SLAZINIC ACID]; 69.8 µM (inactive)
Cc1[nH]n(-c2ncc(C#N)c(=O)[nH]2)c(=O)c1CCO; > 100 µM (inactive)
COC(=O)c1cc(NC2OCC(OC(C)=O)C(OC(C)=O)C2OC(C)=O)nc(SC)c1C(=O)OC (centres undefined); > 100 µM (inactive)
CC(C)(CN1CCCCC1)C(=O)CC(SCCS(=O)(=O)O)c1ccccc1 (centres undefined); 5.9 µM (inactive)
Cc1cc2c(cc1Cl)SC(NNCCO)=NS2(=O)=O; > 100 µM (inactive)
CCOc1ccc2nc(NC(=O)C(=O)C3C(=O)C(CC4C(=O)c5ccccc5C4=O)C(=O)CC3(C)C)sc2c1 (centres undefined); 86.7 µM (inactive)
Cc1ccc2nc3ccccc3c(C3C4C(=O)N(c5ccc(Br)cc5Cl)C(=O)C4ON3C(C(N)=O)c3ccccc3)c2c1 (centres undefined); 13.7 µM (inactive)
CN(O)C(=O)Cc1ccc(OCc2cccc(Cl)c2)cc1; > 100 µM (inactive)
CSc1ccn(C2CC(F)C(CO)O2)c(=O)n1 (centres undefined); > 100 µM (inactive)
CC1OC(OC2C(O)COC(OC3C(C)OC(OC4C(OC(=O)[C@]56CCC(C)(C)C[C@@H]5C5=CCC7[C@@]8(C)C[C@H](O)[C@H](OC9OC(CO)C(O)C(O)C9O)[C@@](C)(CO)[C@@H]8CC[C@@]7(C)[C@]5(C)CC6)OCC(O)C4O)C(O)C3OC3OCC(O)C(O)C3O)C2O)C(O)C(O)C1O (some centres undefined); 19.9 µM (inactive)
CC(=O)OC1(C(C)=O)CC2(c3ccccc3)OC1(c1ccccc1)c1ccccc12 (centres undefined); 7.78 µM (inactive)
O=C(O)/C(Cc1ccnc2ccccc12)=N\O; > 100 µM (inactive)
COc1nc2cccc(C(O)c3ccccc3)c2nc1-c1ccccc1 (centres undefined); 3.97 µM (inactive)
